These measurements were taken from patent US20090069320A1.

Molecular target: mGluR5 receptor (Sus scrofa)
Construct: 450 μg of protein from brain homogenate with 5 nM ^3[H]-MPEP; from tissue; host or cells: pig brain halves without medulla, cerebellum and pons
Test: [3H]-MPEP mGluR5 receptor binding assay (pig brain homogenate)
Details: 10 μM compound, 5 nM [3H]-MPEP, read-out: % Inhibition of mGluR5 Receptor (pig) [^3H]-MPEP Bond at 10 μM
Consider the following compounds; for each one, report its inhibition at 10 µM.
One number for each entry, in %.

Required: inhibition at 10 µM, one value per compound below.
1. CS(=O)(=O)N(Cc1cc(-c2ccc3ncnc(NC4CC4)c3c2)ccc1F)C1CC1
2. CCCN(Cc1cccc(-c2ccc3ncnc(Nc4ccccc4)c3c2)c1)C(=O)Cc1ccccn1
3. CC(NC1CC1)c1cccc(-c2ccc3ncnc(NC4CC4)c3c2)c1 (centres unmarked)

1. 30
2. 39
3. 37

* * *

Consider the following molecules; for each one, report its pIC50.
Molecular target: mGluR5 receptor (Sus scrofa)
Construct: 450 μg of protein from brain homogenate with 5 nM ^3[H]-MPEP; from tissue; host or cells: pig brain halves without medulla, cerebellum and pons
Experiment: [3H]-MPEP mGluR5 receptor binding assay (pig brain homogenate)
Conditions: 5 nM [3H]-MPEP, read-out: IC50 mGluR5 Receptor (pig) [^3H]-MPEP Bond
Structures can show the parent of a compound that is named as a salt.
One number for each entry, as −log10 of the molar value.

// worked examples, pIC50 included
O=C1CCC(c2ccccc2)C(=O)N1Cc1cccc(-c2ccc3ncnc(NC4CC4)c3c2)c1 (centres unmarked) [Example 220, hydrochloride] | 5.37
CC(=O)N(Cc1cccc(-c2cc(F)c3ncnc(NC4CC4)c3c2)c1)C1CC1 | 6.92
CCOC(=O)N(Cc1cccc(-c2ccc3ncnc(NC4CC4)c3c2)c1)C1CC1 | 7.40
O=C1C2CCCCC2C(=O)N1Cc1cccc(-c2ccc3ncnc(NC4CC4)c3c2)c1 (centres unmarked) [Example 228, hydrochloride] | 5.06
O=C(c1ccno1)N(Cc1cccc(-c2ccc3ncnc(NC4CC4)c3c2)c1)C1CC1 | 5.88

Required: pIC50, one value per molecule below.
1. CC(=O)N(C)Cc1cccc(-c2ccc3ncnc(NC4CC4)c3c2)c1
2. CC(C)(C)Nc1ncnc2ccc(-c3cccc(CN4C(=O)CCC4=O)c3)cc12 [Example 196, hydrochloride]
3. CS(=O)(=O)N(Cc1cccc(-c2cc(F)c3ncnc(NC4CC4)c3c2)c1)C1CC1
4. CC(=O)N(Cc1cccc(-c2ccc3ncnc(NC4CC4)c3c2)c1)C1CCC1

[5.27, 7.05, 6.66, 5.49]

* * *

Molecular target: mGluR5 receptor (Sus scrofa)
Construct: 450 μg of protein from brain homogenate with 5 nM ^3[H]-MPEP; from tissue; host or cells: pig brain halves without medulla, cerebellum and pons
Test: [3H]-MPEP mGluR5 receptor binding assay (pig brain homogenate)
Details: 10 μM compound, 5 nM [3H]-MPEP, read-out: % Inhibition of mGluR5 Receptor (pig) [^3H]-MPEP Bond at 10 μM
Consider the following compounds; for each one, report its inhibition at 10 µM.

O=C(c1cccc(F)c1)N(Cc1cc(-c2ccc3ncnc(NC4CC4)c3c2)ccc1F)C1CC1 | 91%

Required: inhibition at 10 µM, one value per compound below.
1. CNc1ncnc2ccc(-c3cccc(CN(C(=O)c4cccc(F)c4)c4ccccc4F)c3)cc12
2. O=C(c1ccncc1)N(Cc1cccc(-c2cc(F)c3ncnc(NC4CC4)c3c2)c1)C1CC1
3. Cc1cc2ncnc(NC3CC3)c2cc1-c1cccc(CN(C(=O)c2ccccn2)C2CC2)c1

["60%", "91%", "90%"]

Required: inhibition at 10 µM, one value per compound below.
1. O=C(c1ccccc1C(F)(F)F)N(Cc1cccc(-c2ccc3ncnc(NC4CC4)c3c2)c1)C1CC1
2. CC(=O)N(Cc1cccc(-c2ccc3ncnc(NCc4cccc(C)c4)c3c2)c1)C1CC1
3. COc1ccc(C(=O)N(Cc2cc(-c3ccc4ncnc(NC5CC5)c4c3)ccc2F)C2CC2)cc1OC
4. O=C(c1ccc(F)cc1F)N(Cc1cccc(-c2cc(F)c3ncnc(NC4CC4)c3c2)c1)C1CC1

["98%", "76%", "90%", "98%"]

Required: inhibition at 10 µM, one value per compound below.
1. CCCN(Cc1cccc(-c2ccc3ncnc(Nc4ccccc4)c3c2)c1)C(=O)c1ccccc1
2. CCCN(Cc1cccc(-c2ccc3ncnc(Nc4ccccc4)c3c2)c1)C(=O)COc1ccccc1
3. CCN(CC)c1ncnc2ccc(-c3cccc(CN(C)C(=O)c4ccsc4)c3)cc12
4. Cc1nc(NC2CC2)c2cc(-c3ccc(F)c(CN(C(=O)c4cccc(F)c4)C4CC4)c3)ccc2n1
5. CCCCC(=O)N(Cc1cccc(-c2ccc3nc(C)nc(NC4CC4)c3c2)c1)C1CC1
6. Cc1cc(C(=O)N(Cc2cc(-c3ccc4ncnc(NC5CC5)c4c3)ccc2F)C2CC2)n(C)n1
7. O=C(COc1ccccc1)N(Cc1cccc(-c2ccc3ncnc(NC4CC4)c3c2)c1)C1CC1

["52%", "44%", "34%", "61%", "76%", "87%", "86%"]

Required: inhibition at 10 µM, one value per compound below.
1. Cc1nc(NC2CC2)c2cc(-c3ccc(F)c(CN(C(=O)c4ccccn4)C4CC4)c3)ccc2n1
2. N#Cc1cccc(C(=O)N(Cc2cccc(-c3ccc4ncnc(NC5CC5)c4c3)c2)C2CC2)c1
3. CCCC(=O)N(Cc1cccc(-c2ccc3ncnc(NC4CC4)c3c2)c1)C1CC1
4. O=C(O)CCC(=O)NCc1cccc(-c2ccc3ncnc(NCC(=O)O)c3c2)c1
5. COc1ccc(CNc2ncnc3ccc(-c4cccc(CN(C(C)=O)C5CC5)c4)cc23)c(OC)c1

41%
76%
90%
47%
36%

Required: inhibition at 10 µM, one value per compound below.
1. O=C(c1ccccn1)N(Cc1cc(-c2ccc3ncnc(NC4CC4)c3c2)ccc1F)C1CC1
2. O=C(c1cccs1)N(Cc1cccc(-c2cc(F)c3ncnc(NC4CC4)c3c2)c1)C1CC1
3. Cc1cc(C(=O)N(Cc2cc(-c3ccc4nc(C)nc(NC5CC5)c4c3)ccc2F)C2CC2)n(C)n1
4. CC(C)CN(Cc1cccc(-c2ccc3ncnc(N4CCOCC4)c3c2)c1)C(=O)c1cccs1
5. O=C(c1ccc(C(F)(F)F)cc1F)N(Cc1ccccc1)Cc1cccc(-c2ccc3ncnc(NC4CC4)c3c2)c1
6. CCCN(Cc1cccc(-c2ccc3ncnc(Nc4ccccc4)c3c2)c1)C(=O)c1cccs1
7. O=C(Cc1ccccc1)N(Cc1cccc(-c2cc(F)c3ncnc(NC4CC4)c3c2)c1)C1CC1
8. Cc1cc(C(=O)N(Cc2cccc(-c3cc4c(NC5CC5)ncnc4cc3C)c2)C2CC2)n(C)n1

96%
81%
33%
46%
45%
47%
79%
69%

Required: inhibition at 10 µM, one value per compound below.
1. CCCCC(=O)N(Cc1cccc(-c2ccc3ncnc(NCCc4ccccc4)c3c2)c1)C1CC1
2. O=C(c1ccc(Cl)cc1)N(Cc1cccc(-c2ccc3ncnc(NC4CC4)c3c2)c1)C1CC1
3. CCCN(Cc1cccc(-c2ccc3ncnc(Nc4ccccc4)c3c2)c1)C(=O)c1ccsc1

["32%", "70%", "31%"]

* * *

Molecular target: mGluR5 receptor (Sus scrofa, UniProt I3LUI7)
Construct: 450 μg of protein from brain homogenate with 5 nM ^3[H]-MPEP; from tissue; host or cells: pig brain halves without medulla, cerebellum and pons
Sequence (I3LUI7 19-1212): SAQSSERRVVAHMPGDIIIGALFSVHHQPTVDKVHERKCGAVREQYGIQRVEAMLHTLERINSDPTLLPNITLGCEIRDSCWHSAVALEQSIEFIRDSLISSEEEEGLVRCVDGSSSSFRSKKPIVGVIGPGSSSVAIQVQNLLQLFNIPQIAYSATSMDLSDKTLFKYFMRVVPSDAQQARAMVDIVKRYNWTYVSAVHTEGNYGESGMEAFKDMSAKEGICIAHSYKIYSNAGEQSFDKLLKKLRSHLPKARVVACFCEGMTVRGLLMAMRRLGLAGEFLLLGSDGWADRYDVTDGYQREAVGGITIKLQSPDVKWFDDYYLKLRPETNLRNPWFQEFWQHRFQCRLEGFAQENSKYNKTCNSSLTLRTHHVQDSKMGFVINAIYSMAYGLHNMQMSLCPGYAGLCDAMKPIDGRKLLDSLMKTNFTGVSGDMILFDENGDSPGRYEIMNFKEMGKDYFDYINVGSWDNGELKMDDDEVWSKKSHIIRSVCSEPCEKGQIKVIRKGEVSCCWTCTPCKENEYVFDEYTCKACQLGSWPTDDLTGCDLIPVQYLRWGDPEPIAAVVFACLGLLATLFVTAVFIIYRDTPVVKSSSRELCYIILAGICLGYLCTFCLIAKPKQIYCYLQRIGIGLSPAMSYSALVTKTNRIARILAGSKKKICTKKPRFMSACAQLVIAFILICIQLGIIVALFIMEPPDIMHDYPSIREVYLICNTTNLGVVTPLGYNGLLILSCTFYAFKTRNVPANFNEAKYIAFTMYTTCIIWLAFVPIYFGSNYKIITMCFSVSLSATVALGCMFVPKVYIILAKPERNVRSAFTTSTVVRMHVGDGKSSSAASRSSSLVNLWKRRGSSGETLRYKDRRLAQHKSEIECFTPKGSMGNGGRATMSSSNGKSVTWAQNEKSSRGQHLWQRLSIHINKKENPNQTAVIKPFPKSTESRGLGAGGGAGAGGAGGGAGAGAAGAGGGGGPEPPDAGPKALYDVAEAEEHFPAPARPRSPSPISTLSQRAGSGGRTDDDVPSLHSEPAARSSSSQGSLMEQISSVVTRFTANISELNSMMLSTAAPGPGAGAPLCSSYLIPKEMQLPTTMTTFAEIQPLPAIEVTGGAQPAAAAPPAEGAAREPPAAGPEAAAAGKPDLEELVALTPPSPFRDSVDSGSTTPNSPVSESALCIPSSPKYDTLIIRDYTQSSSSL
Test: [3H]-MPEP mGluR5 receptor binding assay (pig brain homogenate)
Settings: 5 nM [3H]-MPEP, read-out: IC50 mGluR5 Receptor (pig) [^3H]-MPEP Bond
measured_quantity: IC50 (µM)
Answers are plain numbers, in µM.

// worked examples, IC50 included
O=C(CCc1ccccc1)N(Cc1cccc(-c2ccc3ncnc(NC4CC4)c3c2)c1)C1CC1 | 1.7
CC(C)(C)Nc1ncnc2ccc(-c3ccc(F)c(CN(C(=O)CC#N)C4CC4)c3)cc12 | 0.03
O=C1CCC(=O)N1Cc1cccc(-c2ccc3ncnc(NCc4ccccc4)c3c2)c1 | 1.25
COc1ccc(-c2ccc3ncnc(NC4CC4)c3c2)cc1CNC1CC1 | 10.8
CC(c1cccc(-c2ccc3ncnc(NC4CC4)c3c2)c1)N(C(=O)c1ccccc1)C1CC1 (centres unmarked) | 0.82

Required: IC50, one value per compound below.
1. CC(c1cccc(-c2ccc3ncnc(NC4CC4)c3c2)c1)N(C1CC1)S(C)(=O)=O (centres unmarked)
2. CS(=O)(=O)N(Cc1ccccc1)Cc1cccc(-c2ccc3ncnc(NC4CC4)c3c2)c1

1: 5.72; 2: 4.61

What value of measured IC50 is listed for `O=C1CCC(=O)N1Cc1cccc(-c2ccc3ncnc(N4CCCC4)c3c2)c1` ?
4.3

* * *

Target: mGluR5 receptor (Sus scrofa, UniProt I3LUI7)
Construct: 450 μg of protein from brain homogenate with 5 nM ^3[H]-MPEP; from tissue; host or cells: pig brain halves without medulla, cerebellum and pons
Assay: [3H]-MPEP mGluR5 receptor binding assay (pig brain homogenate)
Conditions: 5 nM [3H]-MPEP, read-out: IC50 mGluR5 Receptor (pig) [^3H]-MPEP Bond
Counter-ions that a name gives are not always drawn.
measured_quantity: pIC50
One number for each entry, as −log10 of the molar value.

// worked examples, pIC50 included
CC(=O)N(Cc1cccc(-c2ccc3ncnc(NC4CC4)c3c2)c1)Cc1ccco1 | 5.82
CC(C)Nc1ncnc2ccc(-c3cccc(CN4C(=O)CCC4=O)c3)cc12 [Example 873, hydrochloride] | 7.10
CC(C)(C)Nc1ncnc2ccc(-c3ccc(F)c(CNC4CC4)c3)cc12 | 5.53
COc1ccc(CN(C(=O)c2ccccc2)C2CC2)cc1-c1ccc2ncnc(NC3CC3)c2c1 [Example 268] | 5.27
O=C(CCl)N(Cc1cc(-c2ccc3ncnc(NC4CC4)c3c2)ccc1F)C1CC1 | 6.54

Required: pIC50, one value per compound below.
1. CN(Cc1cccc(-c2ccc3ncnc(NC4CC4)c3c2)c1)C1CC1
2. O=C(c1c(F)c(F)c(F)c(F)c1F)N(Cc1cccc(-c2ccc3ncnc(NC4CC4)c3c2)c1)C1CC1
3. COc1ccc(CN(C2CC2)S(C)(=O)=O)cc1-c1ccc2ncnc(NC3CC3)c2c1

5.25
6.22
6.92
